test system: biotinyl-Met-oxazolone; assay: self-aminoacylation, catalytic enhancement (BMO) (fold over background); higher = more active; k-Seq, kA / k0A0; sequences stand for … in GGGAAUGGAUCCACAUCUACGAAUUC…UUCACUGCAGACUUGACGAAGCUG
Fewer inactive variants are shown than the library holds.
REPORTED_PROPERTY: self-aminoacylation

CUACUUCAAACGAUCAGUCUG [Fam1A.1 aminoacylation ribozyme variant]: 0.593
CCACACUUCAAGCAACCGGCC [Fam1B.1 aminoacylation ribozyme variant]: 4.29
AUUACCCUGGUAAUCGAGAGA [Fam2.1 aminoacylation ribozyme variant]: 0.722
AUUACCCUGGUCAUGAAGUGA [Fam2.1 aminoacylation ribozyme variant]: 8.83
AAGAUUGCUAAUAGUCCCAAG [Fam3.1 aminoacylation ribozyme variant]: 0.597
AUUCACCUAGGUCAUCUUGUG [Fam2.2 aminoacylation ribozyme variant]: 1.13
CCACACUCCCAGCAAUCGGUC [Fam1B.1 aminoacylation ribozyme variant]: 1.41
GAGUUUGCUAAUAGGCGCAAG [Fam3.1 aminoacylation ribozyme variant]: 0.961
AUUCAUCUAGGUCAUCGGGUA [Fam2.2 aminoacylation ribozyme variant]: 4.18

###

test system: biotinyl-Met-oxazolone; assay: self-aminoacylation, catalytic enhancement (BMO) (fold over background); higher = more active; k-Seq, kA / k0A0; sequences stand for … in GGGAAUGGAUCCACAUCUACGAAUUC…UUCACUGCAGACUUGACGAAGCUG
This sample holds only a part of the variants without activity.
Below, each entry is listed with its recorded self-aminoacylation.
REPORTED_PROPERTY: self-aminoacylation

CUACUUUAGACAAUCGGUCUG [Fam1A.1 aminoacylation ribozyme variant]: 0.847
AUUAACCUGGUAAUCGAGUGA [Fam2.1 aminoacylation ribozyme variant]: 8.82
CAGCACUUCAAGCAAUCGGUC [Fam1B.1 aminoacylation ribozyme variant]: 1.79
AGGUUUACUAAUAGUCGCAAG [Fam3.1 aminoacylation ribozyme variant]: 1.84

###

system: biotinyl-Ile-oxazolone; test: self-aminoacylation, catalytic enhancement (BIO) (fold over background); higher = more active; k-Seq, kA / k0A0; sequences stand for … in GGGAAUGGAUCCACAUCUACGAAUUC…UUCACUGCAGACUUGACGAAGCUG
Fewer inactive variants are shown than the library holds.
REPORTED_PROPERTY: self-aminoacylation

CUCCUUAAAACAAUCGGUCUG [Fam1A.1 aminoacylation ribozyme variant]: 1.06
AAGUUGGCGAAUAGUCGCAAG [Fam3.1 aminoacylation ribozyme variant]: 1.78
CUUACCCUGGUCUUCGAGUGA [Fam2.1 aminoacylation ribozyme variant]: 2.29
AUUCAUCUAGGUCAUGGGGUG [Fam2.2 aminoacylation ribozyme variant]: 3.26
CUGCUUUAAACAAUCGGUCUG [Fam1A.1 aminoacylation ribozyme variant]: 0.889
CUACUUCGAACAAUCUGUCUG [Fam1A.1 aminoacylation ribozyme variant]: 0.539
AUUCCCCUAGGUGAUCGGGUG [Fam2.2 aminoacylation ribozyme variant]: 7.9
AUUCACAUCGGUCAUCGGGUG [Fam2.2 aminoacylation ribozyme variant]: 4.36
CCACACUUCCUGCAAUCGGUC [Fam1B.1 aminoacylation ribozyme variant]: 1.04

###

# self-aminoacylation annotations
test system: biotinyl-Trp-oxazolone; experiment: self-aminoacylation, catalytic enhancement (BWO) (fold over background); higher = more active; k-Seq, kA / k0A0; sequences stand for … in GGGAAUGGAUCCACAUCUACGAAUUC…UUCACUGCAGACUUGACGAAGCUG
This sample holds only a part of the variants without activity.
REPORTED_PROPERTY: self-aminoacylation

AUUACCCAGGUCAGCGAGUGA [Fam2.1 aminoacylation ribozyme variant]: 6.47
AUUACCCUGCUCGUCGAGUGA [Fam2.1 aminoacylation ribozyme variant]: 0.43
AAUCACCUAGGUAAUCGGGUG [Fam2.2 aminoacylation ribozyme variant]: 4.18
CCACACGUCAAGCACUCGGUC [Fam1B.1 aminoacylation ribozyme variant]: 1.1
AAGUUUGAUAAUAGUCGCAAC [Fam3.1 aminoacylation ribozyme variant]: 0.736

###

system: biotinyl-Phe-oxazolone; assay: self-aminoacylation, catalytic enhancement (BFO) (fold over background); higher = more active; k-Seq, kA / k0A0; sequences stand for … in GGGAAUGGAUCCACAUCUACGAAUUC…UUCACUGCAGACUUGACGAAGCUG
Fewer inactive variants are shown than the library holds.
Measured self-aminoacylation values are reported for all entries that follow.
REPORTED_PROPERTY: self-aminoacylation

UUUCACAUAGGUCAUCGGGUG [Fam2.2 aminoacylation ribozyme variant]: 56.6
CUACUUCAAACGAUCAGUCUG [Fam1A.1 aminoacylation ribozyme variant]: 1.22
AUUACCCUGGGGAUCGAGUGA [Fam2.1 aminoacylation ribozyme variant]: 14.1
AAGUUUCUUAAUAGUCGCAAG [Fam3.1 aminoacylation ribozyme variant]: 3.21
AUUACACUGGUCAUCGAGUUA [Fam2.1 aminoacylation ribozyme variant]: 0.876
CCGCACUGCAAGCAAUCGGUC [Fam1B.1 aminoacylation ribozyme variant]: 1
AUUAGCCUGGUCAUCGACUGA [Fam2.1 aminoacylation ribozyme variant]: 1.59
AUUACCUUGGUCAUCGAGUUA [Fam2.1 aminoacylation ribozyme variant]: 0.913
CCACACUUCAAACAAUCGAUC [Fam1B.1 aminoacylation ribozyme variant]: 2.59
AUUCACCUAGGUAAUCGGGUU [Fam2.2 aminoacylation ribozyme variant]: 0.331
AAGUGUGCUAAUAGUCGCAAA [Fam3.1 aminoacylation ribozyme variant]: 2.76
AUUACACAGGUCAUCGAGUGA [Fam2.1 aminoacylation ribozyme variant]: 8.1
AUUCACCAAGGUCAUCGGGUA [Fam2.2 aminoacylation ribozyme variant]: 22.5
AUUACCCUGGUAAUCAAGUGA [Fam2.1 aminoacylation ribozyme variant]: 16.1
AAGUUUGCUAAUAGUCGCAUU [Fam3.1 aminoacylation ribozyme variant]: 1.63
AUUCAACUAGGUCAGCGGGUG [Fam2.2 aminoacylation ribozyme variant]: 32.2
CAGUUUGCUCAUAGUCGCAAG [Fam3.1 aminoacylation ribozyme variant]: 2.06
CCACUUCAAACUAUCGGUCUG [Fam1A.1 aminoacylation ribozyme variant]: 0.866
ACGUUAGCUAAUAGUCGCAAG [Fam3.1 aminoacylation ribozyme variant]: 3.08
ACACACUACAAGCAAUCGGUC [Fam1B.1 aminoacylation ribozyme variant]: 1.65
CCACACUUCAAGGACUCGGUC [Fam1B.1 aminoacylation ribozyme variant]: 1.05
AUGGCCCUGGUCAUCGAGUGA [Fam2.1 aminoacylation ribozyme variant]: 729
GUUAGCCUGGUCAUCGAGUGA [Fam2.1 aminoacylation ribozyme variant]: 51.9
CUACUUCAGACAAUCGGUCUG [Fam1A.1 aminoacylation ribozyme variant]: 1.19
AAGUUUGCUAAUAGUGGCUAG [Fam3.1 aminoacylation ribozyme variant]: 1.52
AUUACCCUGGUCAACUAGUGA [Fam2.1 aminoacylation ribozyme variant]: 24.9
AUUACCCUGGUCAUGGUGUGA [Fam2.1 aminoacylation ribozyme variant]: 4.16
CCACACUCUAAGCAAUCGGUC [Fam1B.1 aminoacylation ribozyme variant]: 1.04
AUUACCCUGGUCAUAUAGUGA [Fam2.1 aminoacylation ribozyme variant]: 69.1
CGACACUUCAACCAAUCGGUC [Fam1B.1 aminoacylation ribozyme variant]: 18.2
AUUCACCCAGGUCAGCGGGUG [Fam2.2 aminoacylation ribozyme variant]: 18.4
CUACGUCAGACAAUCGGUCUG [Fam1A.1 aminoacylation ribozyme variant]: 1.67
AAUCACCUAGGUCAGCGGGUG [Fam2.2 aminoacylation ribozyme variant]: 28.9
AUUCACCUAGGACAUCGGGUA [Fam2.2 aminoacylation ribozyme variant]: 7.17
CCACACUUUAAGCAAUAGGUC [Fam1B.1 aminoacylation ribozyme variant]: 1.07

###

system: biotinyl-Val-oxazolone; assay: self-aminoacylation, catalytic enhancement (BVO) (fold over background); higher = more active; k-Seq, kA / k0A0; sequences stand for … in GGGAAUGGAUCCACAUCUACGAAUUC…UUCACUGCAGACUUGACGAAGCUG
Variants at the floor of the assay were thinned out.
Each entry below carries its reported self-aminoacylation.
REPORTED_PROPERTY: self-aminoacylation

AUUGCCCUGGUCAUCGAGUGU [Fam2.1 aminoacylation ribozyme variant]: 23.4
AUUCACCUAGGUCAUCGCGGG [Fam2.2 aminoacylation ribozyme variant]: 2.47
AAGUUUGCUGAUAGUCGCAAU [Fam3.1 aminoacylation ribozyme variant]: 1.33
AUUCAUCUAGGUCAUCGGGCG [Fam2.2 aminoacylation ribozyme variant]: 2.71
AUUACCCUGGUCAUCGAGAUA [Fam2.1 aminoacylation ribozyme variant]: 2.2
CUACUUCAAACAUUCUGUCUG [Fam1A.1 aminoacylation ribozyme variant]: 0.79
AUUACCGUGGCCAUCGAGUGA [Fam2.1 aminoacylation ribozyme variant]: 3.89
CUACUUCACACAAUCGUUCUG [Fam1A.1 aminoacylation ribozyme variant]: 0.61
CUACUUCAAACUAUCGGUCUU [Fam1A.1 aminoacylation ribozyme variant]: 0.968
AUUCACCGAGCUCAUCGGGUG [Fam2.2 aminoacylation ribozyme variant]: 3.41
CAGCACUUCAAGCAAUCGGUC [Fam1B.1 aminoacylation ribozyme variant]: 1.55
AUUCACCAAGGUCAUCGGCUG [Fam2.2 aminoacylation ribozyme variant]: 1.92
AUUCACCUAGGUAAUCGGAUG [Fam2.2 aminoacylation ribozyme variant]: 0.524
AUUCACCUAGUUCAUCGGGUC [Fam2.2 aminoacylation ribozyme variant]: 1.17
CUACUUCAAGCCAUCGGUCUG [Fam1A.1 aminoacylation ribozyme variant]: 1.04
CCGCACUUCAAGCAUUCGGUC [Fam1B.1 aminoacylation ribozyme variant]: 2.28
CCACUCUUCAAGCAAUCGAUC [Fam1B.1 aminoacylation ribozyme variant]: 0.735
CCACACUUAAAGCAUUCGGUC [Fam1B.1 aminoacylation ribozyme variant]: 1.58
GCACACUUCAAGCAAUCGGCC [Fam1B.1 aminoacylation ribozyme variant]: 3.45
AUAACCCUGGUCUUCGAGUGA [Fam2.1 aminoacylation ribozyme variant]: 2.71
GUUACACUGGUCAUCGAGUGA [Fam2.1 aminoacylation ribozyme variant]: 4.18
GUCACCCUGGUCAUCGAGUGA [Fam2.1 aminoacylation ribozyme variant]: 5.25
UUUCACCUAGGUCAUCGGCUG [Fam2.2 aminoacylation ribozyme variant]: 2.29
AUACACCUAGCUCAUCGGGUG [Fam2.2 aminoacylation ribozyme variant]: 2.21
AUUACCCUGGUCUUCGAGUCA [Fam2.1 aminoacylation ribozyme variant]: 0.873
CUACUUCAAACAAUCGGUUUU [Fam1A.1 aminoacylation ribozyme variant]: 1.26
AUACACCUAGGUUAUCGGGUG [Fam2.2 aminoacylation ribozyme variant]: 2.95
AUUACCCUGGUCAUCGAGUAU [Fam2.1 aminoacylation ribozyme variant]: 9.24
AUUGUCCUGGUCAUCGAGUGA [Fam2.1 aminoacylation ribozyme variant]: 4.76
AAGUUUCCUAACAGUCGCAAG [Fam3.1 aminoacylation ribozyme variant]: 1.03
CUACUUCUAACAAUCGGUCGG [Fam1A.1 aminoacylation ribozyme variant]: 0.728
UUUUCCCUGGUCAUCGAGUGA [Fam2.1 aminoacylation ribozyme variant]: 5.81
CCACCCUUCAAGCAAUCGUUC [Fam1B.1 aminoacylation ribozyme variant]: 0.89
CUACUUCAAAGAAUUGGUCUG [Fam1A.1 aminoacylation ribozyme variant]: 0.912
CCACAAUUCAAGAAAUCGGUC [Fam1B.1 aminoacylation ribozyme variant]: 0.906
